These entries and their values trace back to patent US20170210813A1.

In this section we review reported Kd values for a set of binders.
Assayed target: T1, Macaca fascicularis PDGFRb.mmh (Macaca fascicularis)
T1 construct: Soluble monomeric construct; also called mfPDGFRb.mmh
T1 chain: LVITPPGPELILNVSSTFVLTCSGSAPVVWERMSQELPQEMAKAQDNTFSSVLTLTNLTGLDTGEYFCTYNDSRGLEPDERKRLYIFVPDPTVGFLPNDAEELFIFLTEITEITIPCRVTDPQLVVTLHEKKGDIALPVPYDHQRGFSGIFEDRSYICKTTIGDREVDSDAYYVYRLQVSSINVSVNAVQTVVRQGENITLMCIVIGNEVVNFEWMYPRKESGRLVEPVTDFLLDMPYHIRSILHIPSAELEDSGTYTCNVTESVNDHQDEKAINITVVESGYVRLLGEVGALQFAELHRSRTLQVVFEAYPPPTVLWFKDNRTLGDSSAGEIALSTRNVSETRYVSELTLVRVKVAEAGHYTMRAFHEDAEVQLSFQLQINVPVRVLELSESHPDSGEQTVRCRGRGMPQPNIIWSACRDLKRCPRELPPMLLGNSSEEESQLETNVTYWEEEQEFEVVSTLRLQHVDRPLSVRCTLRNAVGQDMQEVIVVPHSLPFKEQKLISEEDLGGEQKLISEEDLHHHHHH
Assay name: SPR, mAb captured, 25 C
Note: unit nM is implicit; provide only the numeric part.

Field: example entries. Status: answers known.
Binder	Kd (nM)
H4H3374N (antibody, human IgG4, V domains shown, human IgG4 Fc (H4H prefix)) VH: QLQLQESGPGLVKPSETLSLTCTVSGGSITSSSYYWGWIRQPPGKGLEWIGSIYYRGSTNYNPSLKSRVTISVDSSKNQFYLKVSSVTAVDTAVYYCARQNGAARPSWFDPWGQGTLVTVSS VL: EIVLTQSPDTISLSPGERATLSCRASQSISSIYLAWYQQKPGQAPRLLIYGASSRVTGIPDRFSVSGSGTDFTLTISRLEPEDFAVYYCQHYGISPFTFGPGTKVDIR	1.66
H4H3095S (antibody, human IgG4, V domains shown, human IgG4 Fc (H4H prefix)) VH: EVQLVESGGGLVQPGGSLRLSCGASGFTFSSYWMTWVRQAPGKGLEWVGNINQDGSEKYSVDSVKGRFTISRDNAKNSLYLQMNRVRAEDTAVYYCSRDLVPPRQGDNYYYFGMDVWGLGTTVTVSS VL: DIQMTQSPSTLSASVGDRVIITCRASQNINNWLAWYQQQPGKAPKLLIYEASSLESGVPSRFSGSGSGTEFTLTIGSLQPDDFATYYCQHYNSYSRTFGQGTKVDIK	8.5
H4H3103S (antibody, human IgG4, V domains shown, human IgG4 Fc (H4H prefix)) VH: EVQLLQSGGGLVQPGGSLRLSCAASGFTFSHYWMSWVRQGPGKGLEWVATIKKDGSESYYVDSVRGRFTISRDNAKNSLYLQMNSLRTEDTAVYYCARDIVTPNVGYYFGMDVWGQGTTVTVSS VL: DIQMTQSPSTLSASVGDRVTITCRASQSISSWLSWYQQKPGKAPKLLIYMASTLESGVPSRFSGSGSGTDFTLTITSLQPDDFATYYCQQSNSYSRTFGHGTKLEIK	3.24

Returns the measured Kd for the input binder. Input: H4H3104S (antibody, human IgG4, V domains shown, human IgG4 Fc (H4H prefix)) VH: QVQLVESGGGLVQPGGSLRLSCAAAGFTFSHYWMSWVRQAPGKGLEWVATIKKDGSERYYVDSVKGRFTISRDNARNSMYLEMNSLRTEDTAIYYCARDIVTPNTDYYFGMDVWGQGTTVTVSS VL: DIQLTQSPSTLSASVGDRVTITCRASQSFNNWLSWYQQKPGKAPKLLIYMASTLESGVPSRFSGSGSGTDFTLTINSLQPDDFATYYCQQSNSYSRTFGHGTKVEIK
0.909
